For each of the molecules below, state its concentration at 30 h.
Test: LC-MS/MS quantification of Cmin in plasma samples from breast cancer patients (clinical study CRO-2018-83)
Format: in vivo, human
Settings: human, plasma, oral, patient 8, sample 10, RIBO 600 mg/day + LETRO 2.5 mg/day; reanalysis in second run; read-out: II quantif. plasma concentration (Cmin)
Protocol: Preparation of calibration curve and QCs samples was conducted through the following steps: 1) 5 μL of working solutions were added to 95 μL of blank human plasma (dilution 1:20) and vortexed for 10 s; 2) a 10 μL-aliquot of this mix was added with 80 μL of cold IS working solution (see “Standard solutions preparation” section), vortexed and then centrifuged for 15 min at 16200 g and 4°C; 3) 70 μL of the supernatant were transferred to a polypropylene tube for the following analysis. […]
Kindly write the number and append the unit.

*Q* Give the value of concentration at 30 h reported for the following: CN(C)C(=O)c1cc2cnc(Nc3ccc(N4CCNCC4)cn3)nc2n1C1CCCC1
*A* 419 ng/mL

*Q* Answer with the recorded concentration at 30 h of N#Cc1ccc(C(c2ccc(C#N)cc2)n2cncn2)cc1 only.
*A* 46.9 ng/mL

###

Test: LC-MS/MS quantification of Cmin in plasma samples from breast cancer patients (clinical study CRO-2018-83)
Type: in vivo, human
Details: human, plasma, oral, patient 7, sample 9, PALBO 125 mg/day, LETRO 2.5 mg/day; last pill intake 15 h before sampling; read-out: I quantif. plasma concentration (Cmin)
Reported Metric: concentration at 15 h
Put down the number, then write its unit next to it.

*Q* Recall and state the measured concentration at 15 h for N#Cc1ccc(C(c2ccc(C#N)cc2)n2cncn2)cc1 .
*A* 2.8 ng/mL

*Q* Find the measured concentration at 15 h of CC(=O)c1c(C)c2cnc(Nc3ccc(N4CCNCC4)cn3)nc2n(C2CCCC2)c1=O and report it.
*A* 97.9 ng/mL

###

Experiment: LC-MS/MS quantification of Cmin in plasma samples from breast cancer patients (clinical study CRO-2018-83)
Type: in vivo, human
Conditions: human, plasma, oral, 125 mg/day, patient 3, sample 4, PALBO 125 mg/day; last intake 1 week before sampling; reanalysis in second run; read-out: II quantif. plasma concentration (residual)
Reported Metric: concentration at 1 week (ng/mL)
Enter your answer as a number in ng/mL; do not include the unit.

*Q* Fill in reported concentration at 1 week for this entry: CC(=O)c1c(C)c2cnc(Nc3ccc(N4CCNCC4)cn3)nc2n(C2CCCC2)c1=O [PALBO, Palbociclib]
*A* 1.5

###

Assay: LC-MS/MS quantification of Cmin in plasma samples from breast cancer patients (clinical study CRO-2018-83)
Format: in vivo, human
Details: human, plasma, oral, patient 7, sample 9, PALBO 125 mg/day, LETRO 2.5 mg/day; reanalysis in second run; read-out: II quantif. plasma concentration (Cmin)
For each of the molecules below, state its concentration at 15 h.
Give your result as the value with the unit written after it.

*Q* Give the reported concentration at 15 h for this molecule. N#Cc1ccc(C(c2ccc(C#N)cc2)n2cncn2)cc1
*A* 2.9 ng/mL

*Q* Please give measured concentration at 15 h of the following entry: CC(=O)c1c(C)c2cnc(Nc3ccc(N4CCNCC4)cn3)nc2n(C2CCCC2)c1=O
*A* 96.2 ng/mL
